- TESTED TARGET: ULK2 (human) (UniProt Q8IYT8)
- Sequence (Q8IYT8 whole entry, looked up): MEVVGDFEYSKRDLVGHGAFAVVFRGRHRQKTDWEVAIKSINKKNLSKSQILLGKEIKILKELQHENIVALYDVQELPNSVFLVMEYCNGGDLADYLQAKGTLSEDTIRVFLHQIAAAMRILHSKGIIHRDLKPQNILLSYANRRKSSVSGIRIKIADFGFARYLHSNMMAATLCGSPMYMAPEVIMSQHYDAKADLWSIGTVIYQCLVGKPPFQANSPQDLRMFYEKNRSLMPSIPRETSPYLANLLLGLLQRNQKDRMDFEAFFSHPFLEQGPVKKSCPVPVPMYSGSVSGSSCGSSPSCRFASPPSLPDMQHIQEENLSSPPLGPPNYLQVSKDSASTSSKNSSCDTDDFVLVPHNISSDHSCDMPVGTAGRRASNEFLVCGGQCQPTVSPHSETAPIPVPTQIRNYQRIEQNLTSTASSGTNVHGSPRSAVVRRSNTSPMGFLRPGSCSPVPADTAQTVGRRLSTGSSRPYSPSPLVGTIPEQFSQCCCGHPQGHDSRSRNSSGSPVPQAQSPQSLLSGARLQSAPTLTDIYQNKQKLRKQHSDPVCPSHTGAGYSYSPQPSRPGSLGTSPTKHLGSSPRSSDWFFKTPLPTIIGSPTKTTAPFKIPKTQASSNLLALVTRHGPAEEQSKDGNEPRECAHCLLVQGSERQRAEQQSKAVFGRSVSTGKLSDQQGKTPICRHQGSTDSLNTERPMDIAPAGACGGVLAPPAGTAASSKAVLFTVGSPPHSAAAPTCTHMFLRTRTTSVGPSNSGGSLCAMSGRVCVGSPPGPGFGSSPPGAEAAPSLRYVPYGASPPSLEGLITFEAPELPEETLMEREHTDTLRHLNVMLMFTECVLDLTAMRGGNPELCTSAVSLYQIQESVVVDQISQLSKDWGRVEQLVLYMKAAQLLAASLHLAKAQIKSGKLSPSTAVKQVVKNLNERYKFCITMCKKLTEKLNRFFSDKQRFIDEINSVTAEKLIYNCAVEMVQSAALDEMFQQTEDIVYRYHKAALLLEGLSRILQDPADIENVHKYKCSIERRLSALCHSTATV
- PROCEDURE TEXT: radiometric filter-binding kinase assay, Kinase HotSpot
- SETTINGS: compound 0.5 µM; ATP 10 µM
OBSERVABLE: residual activity (%)
Respond with the bare value in %.

**Q:** Consider the molecule shown here: "CN(C)C[C@H]1CCn2c(c(C3=C(c4cn(C)c5ccccc45)C(=O)NC3=O)c3ccccc32)C1" What is its recorded residual activity?
**A:** 105

**Q:** Consider the molecule shown here: "O=C1NC(=O)C(c2c[nH]c3ccccc23)=C1c1c[nH]c2ccccc12" What is its recorded residual activity?
**A:** 92.9

**Q:** Consider the molecule shown here: "O=C1NC(=O)C(c2cn(CCCO)c3ncccc23)=C1c1cnccn1" What is its recorded residual activity?
**A:** 96.7

**Q:** Consider the molecule shown here: "O=C(Nc1cccc(Nc2cc(Nc3cccc(C(F)(F)F)c3)ncn2)c1)C1CC1" What is its recorded residual activity?
**A:** 102

**Q:** Consider the molecule shown here: "CN([C@@H](Cc1ccc(OS(=O)(=O)c2cccc3cnccc23)cc1)C(=O)N1CCN(c2ccccc2)CC1)S(=O)(=O)c1cccc2cnccc12" What is its recorded residual activity?
**A:** 106

**Q:** Consider the molecule shown here: "O=C(O)/C=C/c1cc(Br)c(Br)c(Br)c1Br" What is its recorded residual activity?
**A:** 80.3

**Q:** Consider the molecule shown here: "Cc1nc2cc3nc(-c4cccs4)cnc3cc2n1C" What is its recorded residual activity?
**A:** 105

**Q:** Consider the molecule shown here: "COc1ccc(OC)c2c(=S)c3ccccc3[nH]c12" What is its recorded residual activity?
**A:** 94.7

**Q:** Consider the molecule shown here: "CC(=O)O/N=C1\C(=C2\C(=O)Nc3cc(Br)ccc32)Nc2ccccc21" What is its recorded residual activity?
**A:** 92.2

**Q:** Consider the molecule shown here: "COc1cc2ncc(-c3ccccc3)nc2cc1OC" What is its recorded residual activity?
**A:** 113

**Q:** Consider the molecule shown here: "CCN(CC)CCCCN1c2ccccc2Oc2ccc(Cl)cc21" What is its recorded residual activity?
**A:** 103

**Q:** Consider the molecule shown here: "Cn1nc2c3c(cccc31)C(=O)c1ccccc1-2" What is its recorded residual activity?
**A:** 109

**Q:** Consider the molecule shown here: "CC(C)c1nn(-c2c(Cl)cccc2Cl)c2nc(Cc3ccc(OCCO)cc3)nc(O)c12" What is its recorded residual activity?
**A:** 86.6

**Q:** Consider the molecule shown here: O=C1Nc2ccccc2/C1=C1/Nc2ccccc2/C1=N\OCCC(O)CO (stereo unspecified) What is its recorded residual activity?
**A:** 102

**Q:** Consider the molecule shown here: "Cn1sc(=O)n(Cc2ccccc2)c1=O" What is its recorded residual activity?
**A:** 105

**Q:** Consider the molecule shown here: "CC(C)[C@H](CO)Nc1nc(Nc2cc(N)cc(Cl)c2)c2ncn(C(C)C)c2n1" What is its recorded residual activity?
**A:** 74.9

**Q:** Consider the molecule shown here: "O=C1NC(=O)/C(=C\c2ccc3nccnc3c2)S1" What is its recorded residual activity?
**A:** 104

**Q:** Consider the molecule shown here: "COc1ccc(CNC(=O)Nc2ncc([N+](=O)[O-])s2)cc1" What is its recorded residual activity?
**A:** 93.4

**Q:** Consider the molecule shown here: "Cn1cnc2cc3c(Nc4cccc(Br)c4)ncnc3cc21" What is its recorded residual activity?
**A:** 74.8

**Q:** Consider the molecule shown here: "COc1cc2ncnc(N3CCN(C(=O)Nc4ccc(Oc5ccccc5)cc4)CC3)c2cc1OC" What is its recorded residual activity?
**A:** 102

**Q:** Consider the molecule shown here: "Nc1nccc(-c2c(-c3ccc(F)cc3)ncn2C2CCNCC2)n1" What is its recorded residual activity?
**A:** 113
